Reference source: patent US20250027068

- measurementTarget: pooled human IgG (human IgG1,2,3 and 4)
observable: Enzyme Activity Endpoint Assay: Fab'2
Please don't drop the unit; write it after the number.

Indicate the recorded Enzyme Activity Endpoint Assay: Fab'2 value for this protein: PRT-178 (protein) MANQEIRYSEVTPYHVTSVWTKGVTPPANFTQGEDVFHAPYVANQGWYDITKTFNGKDDLLCGAATAGNMLHWWFDQNKDQIKRYLEEHPEKQKIIFNNQELFDLKAAIDTKNHQLDSKLFEYFKEKAFPYLSTKHLGVFPDHVIDMFINGYRLSLTNHGPTPVKEGSKDPRGGIFDAVFTRGDQSKLLTSRHDFKEKNLKEISDLIKKELTEGKALGLSHTYANVRINHVINLWGADFDSNGNLKAIYVTDSDSNASIGMKKYFVGVNSAGKVAISAKEIKEDNIGAQVLGLFTLSTGQDSWNQTN
695 ng/µL

Quickly give me recorded Enzyme Activity Endpoint Assay: Fab'2 for PRT-172 (protein) MANQEIRYSEVTPYHVTSVWTKGVKPPTDFIKGEDVFHAPYKAHQGWYDITKTFNGKDDLLCGAATAGNMLHWWFDQNKDQIKRYLEEHPEKQKINFNGEQMFDVKEAIDTKNSQLDSKLFEYFKEKAFPYLSTKHLGVFPDHVIDMFINGYRLSLTNHGPTPVKEGSKDPRGGIFDAVFTRGDQSKLLTSRHDFKEKNLKEISDLIKKELTEGKALGLSHTYANVRINHVINLWGADFDSNGNLKAIYVTDSDSNASIGMKKYFVGVNSAGKVAISAKEIKEDNIGAQVLGLFTLSTGQDSWNQTN
821 ng/µL

Give the reported value of Enzyme Activity Endpoint Assay: Fab'2 for this record: PRT-176 (protein) MANQEIRYSEVTPYHITSVWTKGVTPPTDFIKGEDVFHAPYKAHQGWYDITKTFNGGDDLLCGAATAGNMLHWWFDQNKTQIEAYLKKHPEKQKINFNGEQMFDVKEAIDTKNSQTNSELFNYFKEKAFPYLSTKHLGVFPDHVIDMFINGYRLSLTNHGPTPVKRQTKDPRGGIFDAVFGRGDQTKLLTSRHDFKEKTLNDISQLIKQELQSGKALGLSHTYANVRINHVINLWGADFDAEGNLEAIYVTDSDSNASIGMKKYFVGKNASGKVAISAKEIEDENIGAQVLGLFTLSTGKKSWEKTN
310 ng/µL

Give me measured Enzyme Activity Endpoint Assay: Fab'2, please, for this protein: PRT-180 (protein) MANQEIRYSEVTPYHVTSVWTKGVTPPANFTQGEDVFHAPYVANQGWYDITKTFNGKDDLLCGAATAGNMLHWWFDQNKDQIKRYLEEHPEKQKINFNGEQMFDVKEAIDTKNHQLDSKLFEYFKEKAFPYLSTKHLGVFPDHVIDMFINGYRLSLTNTQSTDVNEGSKDPRGGIFDAVFTRGDQSKLLTSRHDFKEKNLKEISDLIKKELTEGKALGLSHTYANVRINHVINLWGADFDSNGNLKAIYVTDSDSNASIGMKKYFVGVNSAGKVAISAKEIKEDNIGAQVLGLFTLSTGQDSWNQTN
690 ng/µL
